Tested on: UACC-62 melanoma
Method: NCI tumour cell line growth inhibition, 48 h
Value Kind: TGI

| Molecule | Data Value |
| --- | --- |
| N#CC(C(=O)C(=O)Nc1ccc(Cl)cc1)c1ccccc1 (centres undefined) | 77.9 µM |
| COc1cc2c(OC)cc1CSCc1sc(C)c(c1Br)CSC2 | > 100 µM |
| COc1ccc(C2OC(N)=C(C#N)C3=C2CCCC3C)cc1OC (centres undefined) | > 100 µM |
| O=P1(c2ccccc2)CCCCC1 | > 100 µM |
| COC(=O)[C@]12CCC(C)(C)C[C@H]1[C@H]1C(=O)C=C3[C@@]4(C)C=C(C#N)C(=O)C(C)(C)[C@@H]4CC[C@@]3(C)[C@]1(C)CC2 | 0.0945 µM |
| Cc1nc2ccc(NC(=S)Nc3ccccc3)cc2c(=O)n1-c1ccccc1 | > 100 µM |
| CC1(C)CC(=O)C(C=NC(=O)c2ccncc2)=C(O)C1 | > 100 µM |
| Cc1ccc(C)c(N=C2NC(=O)C(CC(=O)Nc3ccc(Cl)cc3Cl)S2)c1 (centres undefined) | > 100 µM |
| O=S(=O)(c1ccccc1)C1CN2OC1(S(=O)(=O)c1ccccc1)CC2c1ccc(Br)cc1 (centres undefined) | > 100 µM |
| CC(=O)[O][Ga]([Br])[O]C(C)=O | > 100 µM |
| Cc1cc(NS(=O)(=O)c2ccc(Nc3c4ccccc4nc4c(C(=O)N5CCN(CCO)CC5)ccc(Cl)c34)cc2)no1 | > 100 µM |
| Cn1cc(C2=C(c3cccc(Br)c3)C(=O)NC2=O)c2ccccc21 | > 25 µM |
| COc1ccc(-c2nc(-c3cc4c(ccc5ccccc54)oc3=O)cs2)cc1 | > 100 µM |
| OCc1ccn2c1[C@@H](O)CC2 | > 100 µM |
| COc1cccc2cc(C(=O)O)c(=O)oc12 | > 100 µM |
| CCOP(=O)(OCC)OC1C=CC2CCC1C2 (centres undefined) | > 100 µM |
| COC(=O)c1c(C#N)[nH]c(-c2ccsc2)c1C(=O)OC | > 100 µM |
| COc1cc(C=O)c(-c2cc(OC)c(OC)cc2C=O)cc1OC | > 100 µM |
| O=C1NC(=O)/C(=C\c2ccccc2)C2=C1CCCC2 | 9.13 µM |
| COc1ccc2c(c1)C(=O)OCCC2 | > 100 µM |
| C=C(C(=O)O)[C@@H]1C[C@@H](OC(C)=O)[C@]2(C)CC/C=C(\C)CCC[C@H](C)[C@H](O)[C@@H]1O2 | > 100 µM |
| CC1COC(C)(C)P(=O)(c2ccccc2)C1 (centres undefined) | > 100 µM |
| Cc1nn(C(=O)Cc2ccccc2)c2c1C(c1ccc(Cl)cc1)SC(N)=N2 (centres undefined) | > 100 µM |
| CN[C@@H](C)[C@@H](NC)c1ccccc1 | > 100 µM |

----------
Test system: SK-MEL-2 melanoma
Method: NCI tumour cell line growth inhibition, 48 h
Listed here: items and their measured TGI.
Value Kind: TGI

| Compound | Value Kind | Data Value |
| --- | --- | --- |
| COc1ccc(/C(Cl)=C(\C=O)c2ccc(OC)c(OC)c2)cc1 | TGI | 76.6 µM |
| COc1cc(C(=O)N2CCN(c3ncccn3)CC2)c(N)cc1OCc1ccccc1 | TGI | > 100 µM |
| Cc1cc(C)nc(NS(=O)(=O)c2ccc(NC(=O)c3cccc4c(Nc5ccc(S(N)(=O)=O)cc5)c5ccccc5nc34)cc2)n1 | TGI | > 31.1 µM |
| CC(C)(S)C(N)C(=O)O (stereo not drawn) | TGI | > 5000 µM |
| CC(=O)O[C@H]1CCC2[C@@H]3CCC4Nc5[nH]ncc5C[C@]4(C)C3CC[C@@]21C (stereo partly drawn) | TGI | > 100 µM |
| O=S(=O)(c1ccccc1)C1CN2OC1(S(=O)(=O)c1ccccc1)CC2c1ccc(Br)cc1 (stereo not drawn) | TGI | > 100 µM |
| O=C1NC(=NCCc2cccc(Cl)c2)S/C1=C\c1ccc2ncccc2c1 | TGI | > 25 µM |
| CC(C)N(C(=O)C12C3C4C1(I)C1C2C3(I)C41C(=O)N(C(C)C)C(C)C)C(C)C (stereo not drawn) | TGI | > 100 µM |
| N=C(N)c1ccc2nc(-c3cc(CC(=O)N[C@@H](CC(=O)O)C(=O)O)cc(-c4cc(S(N)(=O)=O)ccc4O)c3O)[nH]c2c1 | TGI | > 100 µM |
| CCC(C)C1NC(=O)C(NC(=O)c2c3[nH]c4c(C(=O)NC5C(=O)NC(C(C)CC)C(=O)N6CCCC6C(=O)N(C)CC(=O)N(C)C(C(C)C)C(=O)OC5C)ccc(C)c4oc-3c(C)c(=O)c2=O)C(C)OC(=O)C(C(C)C)N(C)C(=O)CN(C)C(=O)C2CCCN2C1=O (stereo not drawn) | TGI | 17.2 µM |
| CCCCCCOc1ccc(Nc2c(O)c3c(c(O)c2Cl)C(=O)C=CC3=O)cc1 | TGI | 7.05 µM |
| Cc1ccc(NC(=O)CSc2nnc(-c3ccc(N=Cc4ccc(Cl)cc4)cc3)o2)cc1 | TGI | > 100 µM |
| O=C1c2cccc3cccc(c23)C(=O)N1CCCNCCCNCCCCNCCCNCCCN1C(=O)c2cccc3cccc(c23)C1=O | TGI | 16.8 µM |
| CC(=O)Oc1ccc2c(c1)c1c(=O)oc(C)nc1n2Cc1ccccc1 | TGI | > 71.6 µM |
| CC1(C)CC(=O)C(C=NC(=O)c2ccncc2)=C(O)C1 | TGI | > 100 µM |
| COC(=O)[C@]12CCC(C)(C)C[C@H]1[C@H]1C(=O)C=C3[C@@]4(C)C=C(C#N)C(=O)C(C)(C)[C@@H]4CC[C@@]3(C)[C@]1(C)CC2 | TGI | 0.187 µM |
| CCN1CCC(O)(/C=C/c2ccc(C)cc2)C(C(=O)/C=C/c2ccc(C)cc2)C1 (stereo not drawn) | TGI | 15.9 µM |
| CCOC(=O)C1(C/C=C/CBr)CCc2ccccc2C1=O (stereo not drawn) | TGI | 37.7 µM |

----------
Listed here: items and their measured TGI.
Tested on: OVCAR-5 ovarian
Method: NCI tumour cell line growth inhibition, 48 h

| Compound | TGI |
| --- | --- |
| O=C(Oc1cccnc1)c1cc2cc(CCl)ccc2oc1=O | 64.6 µM |
| Cc1cc(C)c2c(c1)C/C(=C\c1ccccc1C(=O)O)C2=O | > 100 µM |
| O=C(Oc1ccccc1)N1c2ccccc2[C@@]23O[C@]24CCC[C@H]3C#C/C=C\C#C[C@H]14 | 24.1 µM |
| NC(=O)c1cc(S(=O)(=O)Nc2nnc(-c3ccccc3)c(-c3ccccc3)n2)c(SCc2ccccc2)cc1Cl | > 100 µM |
| COC(=O)CC1C=CC(C)(OC)OO1 (stereo unspecified) | > 100 µM |
| CN1C(=O)CSC1=S | > 100 µM |
| CC(C)(S)C(N)C(=O)O (stereo unspecified) | > 5000 µM |
| S=c1[nH]c(=S)c2nnn(-c3ccccc3)c2[nH]1 | > 100 µM |
| COc1ccc(-c2nc(-c3cc4c(ccc5ccccc54)oc3=O)cs2)cc1 | > 100 µM |
| [N-]=[N+]=NC1C(O)C(CO)OC1n1ccc(=O)[nH]c1=O (stereo unspecified) | > 875 µM |
| O=C1c2cccc3cccc(c23)C(=O)N1CCCNCCCNCCCCNCCCNCCCN1C(=O)c2cccc3cccc(c23)C1=O | 21.9 µM |

----------
Test system: NCI-H522 lung
Method: NCI tumour cell line growth inhibition, 48 h
Value Kind: TGI

| Molecule | Data Value |
| --- | --- |
| O=C1NC(=NCCc2cccc(Cl)c2)S/C1=C\c1ccc2ncccc2c1 | > 25 µM |
| OCc1ccn2c1[C@@H](O)CC2 | > 100 µM |
| O=S1(=O)Cc2ccc3c4c2-c2c(ccc5ccc(c-4c25)CS(=O)(=O)C3)C1 | > 100 µM |
| Cc1cc2c(cc1C)C(=O)C1(C2)Cc2c(C)ccc(C)c2C1=O (stereo not drawn) | > 100 µM |
| O=C1NP23(OCCO2)Oc2ccccc2C3(C(F)(F)F)O1 (stereo not drawn) | > 100 µM |
| COc1cc(C(=O)N2CCN(c3ncccn3)CC2)c(N)cc1OCc1ccccc1 | > 100 µM |
| CN1C(=O)CSC1=S | > 100 µM |
| Cc1[nH]c(/C=C2\C(=O)Nc3ccccc32)c(C)c1CCC(=O)O | > 100 µM |
| COC(=O)[C@]12CCC(C)(C)C[C@H]1[C@H]1C(=O)C=C3[C@@]4(C)C=C(C#N)C(=O)C(C)(C)[C@@H]4CC[C@@]3(C)[C@]1(C)CC2 | > 100 µM |
| CCCCCCOc1ccc(Nc2c(O)c3c(c(O)c2Cl)C(=O)C=CC3=O)cc1 | 3.98 µM |
| Cc1cc(S(=O)(=O)O)c(NC(=O)C(=O)Cc2cc(=O)oc3cc(O)ccc23)cc1Cl | > 100 µM |
| COc1ccc(OC)c(C(Cc2ccnc3ccccc23)Cc2ccnc3ccccc23)c1 | > 10 µM |
| COc1ccc(/C(Cl)=C(\C=O)c2ccc(OC)c(OC)c2)cc1 | 85.3 µM |
| O=S(=O)(c1ccccc1)C1CN2OC1(S(=O)(=O)c1ccccc1)CC2c1ccc(Br)cc1 (stereo not drawn) | > 100 µM |
| O=C(Nc1ccc(-n2ccc3c(NC(=O)c4ccccc4)nccc32)cc1)Nc1ccc(Cl)c(Cl)c1 | 3.7 µM |
| COC(=O)/C=C/c1c(CC=C(C)C)ncn1C | > 100 µM |
| Cc1c(C)n(-c2ccccc2)c2nc(S(C)(=O)=O)nc(S(C)(=O)=O)c12 | 3.59 µM |
| CC1=C(C(=O)Nc2ccc(Cl)c(Cl)c2)C(c2cccc(Oc3ccccc3)c2)NC(=O)N1 (stereo not drawn) | 26 µM |
